Readings of interaction score for the listed binders
Molecular target: T1, 4H3001-AA
T1 chain: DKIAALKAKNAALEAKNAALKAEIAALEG
Experiment: two-hybrid library CCmax;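 further: natural log of median RNA to DNA barcode read ratio; higher means stronger binding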
Conditions: mean of both orientations
Lab note: write the figure by itself, no unit.

Example binders with recorded interaction score:
1. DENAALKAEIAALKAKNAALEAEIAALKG [4H1650-AA]
-1.67
2. DKIAALEAEIAALKAEIAALKAENAALKG [4H2124-AA]
-1.89
3. DENAALKAKNAALEAEIAALKAEIAALKG [4H1930-AA]
-1.62
4. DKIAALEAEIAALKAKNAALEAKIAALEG [4H2165-AA]
-1.67
5. DKIAALEAENAALEAKIAALKAENAALEG [4H2219-AA]
-0.483

[Q] Name the reported interaction score value associated with the binder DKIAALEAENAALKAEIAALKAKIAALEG [4H2253-AA]
[A] -1.42

[Q] Please answer likewise for DKIAALKAEIAALEAKNAALEAENAALEG [4H2611-AA]
[A] -1.69

Source listed as paper PMC10397247.
